Tested on: TNFα production in LPS-stimulated human monocytes
PROTOCOL_SUMMARY: Cot Monocyte TNFα Cell Based Assay
MEASUREMENT_CONDITIONS: Homo sapiens, Monocyte, LPS-stimulated human monocytes, TNFα TR-FRET; read-out: EC50 TNF
pEC50: −log10 of the molar value.
EXPERIMENTAL_ENDPOINT: pEC50

- Cc1c([C@H](Nc2cc(C#N)c3ncc(C#N)c(NCC(C)(C)C)c3c2)c2cn(C3(C(F)F)CC3)nn2)cccc1-n1ccnc1: 7.11
- Cc1ccccc1[C@H](Nc1cc(Cl)c2ncc(C#N)c(NCC(C)(C)C)c2c1)c1cn(C2(C(F)(F)F)CC2)nn1: 6.21
- Cc1c(-c2ccncc2)cccc1[C@H](Nc1cc(C#N)c2ncc(C#N)c(NCC(C)(C)C)c2c1)c1cn(C2(C(F)(F)F)CC2)nn1: 7.15
- [2H]C(Nc1cc(C#N)c2ncc(C#N)c(NCC(C)(C)C)c2c1)(c1cn(C2(C(F)F)CC2)nn1)c1ccccc1Cl (centres unmarked): 7.01

I. [2H][C@](Nc1cc(Cl)c2ncc(C#N)c(N[C@H](CCS(C)(=O)=O)c3ccccc3)c2c1)(c1ccc(F)cc1)c1cn(C2CC2)nn1
II. CC(C)(C)CNc1c(C#N)cnc2c(C#N)cc(N[C@@H](c3ccc(F)cc3)c3cn(C4(C#N)CC4)nn3)cc12
III. CC(C)(C)CNc1c(C#N)cnc2c(Cl)cc(N[C@@H](c3ccc(F)cc3)c3cn(C4(C#N)CC4)nn3)cc12
IV. Cc1c([C@H](Nc2cc(C#N)c3ncc(C#N)c(NCC(C)(C)C)c3c2)c2cn(C3(C(F)(F)F)CC3)nn2)cccc1-n1cccn1
Rank entries according to their pEC50, from the largest number down. Please, when replying, give the labels in the order that was requested.
II, III, IV, I

---

TEST_TARGET: human Cot catalytic domain (30-397 amino acids) (Homo sapiens, UniProt P41279)
Construct: Purified recombinant human Cot catalytic domain (30-397 amino acids) was purchased from Cama Biosciences; purchased Cama Biosciences (so in the source)
Sequence (P41279 30-397): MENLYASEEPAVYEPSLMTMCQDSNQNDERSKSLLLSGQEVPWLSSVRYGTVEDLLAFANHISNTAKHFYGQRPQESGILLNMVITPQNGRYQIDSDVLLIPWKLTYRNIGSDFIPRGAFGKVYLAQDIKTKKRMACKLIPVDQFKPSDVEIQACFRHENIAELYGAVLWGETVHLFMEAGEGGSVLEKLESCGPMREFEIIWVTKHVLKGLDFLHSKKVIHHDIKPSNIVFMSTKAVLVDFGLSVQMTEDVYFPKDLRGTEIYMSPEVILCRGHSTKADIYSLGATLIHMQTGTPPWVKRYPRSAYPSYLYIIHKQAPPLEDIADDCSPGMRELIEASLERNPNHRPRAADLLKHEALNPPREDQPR
PROTOCOL_SUMMARY: High Throughput Cot Biochemical Assay (KinEASE TR-FRET)
MEASUREMENT_CONDITIONS: Cot biochemical HTRF (KinEASE TR-FRET) assay; read-out: IC50 HTRF
EXPERIMENTAL_ENDPOINT: IC50 (nM)

I. CC1(CNc2c(C#N)cnc3c(Cl)cc(N[C@@H](c4ccccc4)c4cn(C5CCN(C(C)(C)C)CC5)nn4)cc23)CC1
II. N#Cc1cnc2c(Cl)cc(N[C@@H](c3ccccc3)c3cn(CCCN4CCCC4)nn3)cc2c1Nc1ccc(F)c(C#N)c1F
III. N#Cc1cnc2c(Cl)cc(N[C@@H](c3ccccc3)c3cn(C4CCN(C5COC5)CC4)nn3)cc2c1Nc1ccc(Cl)c(Cl)c1F
IV. CC(C)(C)N1CCC(n2cc([C@@H](Nc3cc(Cl)c4ncc(C#N)c(Nc5ccc(F)c(Cl)c5)c4c3)c3cccc(C(N)=O)c3)nn2)CC1
Ranking by IC50 (descending) is requested for the entries above. Write the labels out in the order the request specifies.
III, I, II, IV

1. COc1ccc(Nc2c(C#N)cnc3c(Cl)cc(N[C@@H](c4ccccc4)c4cn(C5CCN(C(C)(C)C)CC5)nn4)cc23)cn1
2. CC(=O)N(C)c1cccc([C@H](Nc2cc(Cl)c3ncc(C#N)c(Nc4cnc(F)c(F)c4)c3c2)c2c[nH]nn2)c1
// task: argmin of IC50 over [ 1 , 2 ] Respond with the label that goes with your answer.
2
(2: 4 nM, 1: 65 nM)

1. CC(C)(C)N1CCC(n2cc([C@@H](Nc3cc(Cl)c4ncc(C#N)c(NCC5CCOCC5)c4c3)c3ccccc3)nn2)CC1
2. N#Cc1cnc2c(Cl)cc(N[C@@H](c3ccc(Cl)cc3)c3c[nH]nn3)cc2c1Nc1c(F)cccc1F
Lab note: check whether 1 or 2 has the lower measured IC50. Lab log: write the label of the selected item as the result.
1
(1: 64 nM, 2: 2340 nM)
